Target: T1, cMet-Fc fusion protein (extracellular domain of the cMet receptor expressed as an Fc-fusion protein) (human, UniProt P08581 25-932)
T1 construct: extracellular domain; also called soluble cMet-Fc-fusion protein; soluble cMet receptor; not shown: Fc part
T1 sequence (P08581 25-932): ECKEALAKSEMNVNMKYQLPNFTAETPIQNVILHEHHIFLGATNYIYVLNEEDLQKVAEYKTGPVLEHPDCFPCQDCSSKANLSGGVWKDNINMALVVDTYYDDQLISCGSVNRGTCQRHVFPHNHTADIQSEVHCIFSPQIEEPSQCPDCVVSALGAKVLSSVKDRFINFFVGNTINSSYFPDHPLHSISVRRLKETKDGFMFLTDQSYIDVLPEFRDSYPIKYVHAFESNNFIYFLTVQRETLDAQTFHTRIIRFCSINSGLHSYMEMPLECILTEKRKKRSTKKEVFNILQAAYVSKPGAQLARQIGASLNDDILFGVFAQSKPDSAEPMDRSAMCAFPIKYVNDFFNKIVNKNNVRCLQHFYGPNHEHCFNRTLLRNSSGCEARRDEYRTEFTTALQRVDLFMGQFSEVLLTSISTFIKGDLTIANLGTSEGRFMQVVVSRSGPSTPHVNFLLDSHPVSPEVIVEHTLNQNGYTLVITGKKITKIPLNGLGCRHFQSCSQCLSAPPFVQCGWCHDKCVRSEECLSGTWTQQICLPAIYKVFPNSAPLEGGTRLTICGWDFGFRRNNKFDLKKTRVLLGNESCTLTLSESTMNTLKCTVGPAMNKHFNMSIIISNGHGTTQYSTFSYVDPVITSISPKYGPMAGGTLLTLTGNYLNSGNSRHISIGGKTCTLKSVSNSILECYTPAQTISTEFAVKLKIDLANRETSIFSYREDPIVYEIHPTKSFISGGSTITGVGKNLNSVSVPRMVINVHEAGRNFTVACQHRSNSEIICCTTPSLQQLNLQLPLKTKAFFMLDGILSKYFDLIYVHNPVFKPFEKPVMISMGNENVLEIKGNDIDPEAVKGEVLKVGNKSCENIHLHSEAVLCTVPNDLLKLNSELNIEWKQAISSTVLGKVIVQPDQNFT
Assay: phage ELISA on cMet-Fc, competitor HGF 500 ng/mL
parameter: % of binding in the absence of HGF (%)
One number for each entry, in %.

[
  {
    "binder": "AGSSPCKGWPTFECYFYGT [552-F01 peptide-displaying phage (SEQ ID NO: 087)]",
    "observed": 37
  }
]

Please look at the items below and tell me % of binding in the absence of HGF for each one, in order.
1. AQSDHDHAHWGVKHWPFRRYQ [93-B10 peptide-displaying phage (SEQ ID NO: 482)]
2. AGYYGCKGPPTFECQWMGT [330-F05 peptide-displaying phage (SEQ ID NO: 049)]

**Result**
0
27

Please look at the items below and tell me % of binding in the absence of HGF for each one, in order.
1. AQQASRFTFTDGDSYWWFEDF [525-A07 peptide-displaying phage (SEQ ID NO: 449)]
2. AQRDYLFYWNDGSYQPWQVFVG [523-A04 peptide-displaying phage (SEQ ID NO: 493)]

**Result**
1: 88; 2: 143

Please look at the items below and tell me % of binding in the absence of HGF for each one, in order.
1. GSPEMCMMFPFLYPCNHHAP [548-F07 peptide-displaying phage (SEQ ID NO: 369)]
2. GDDFHCEFIDDYQSEICYFNDP [333-C03 peptide-displaying phage (SEQ ID NO: 391)]
3. AGDIVCTGHPYFECWSWGT [333-C05 peptide-displaying phage (SEQ ID NO: 068)]
4. AGMTLCAGPPTFECYEVGT [552-F02 peptide-displaying phage (SEQ ID NO: 092)]
5. AQWPHDGLVHWGEVIMLRF [117-F04 peptide-displaying phage (SEQ ID NO: 479)]

**Result**
1. 37
2. 43
3. 66
4. 40
5. 91
